Quick reference: pIC50 of the listed items.
Test target: Lysophosphatidic acid receptor 5 (Homo sapiens, UniProt Q9H1C0)
Sequence (Q9H1C0 whole entry): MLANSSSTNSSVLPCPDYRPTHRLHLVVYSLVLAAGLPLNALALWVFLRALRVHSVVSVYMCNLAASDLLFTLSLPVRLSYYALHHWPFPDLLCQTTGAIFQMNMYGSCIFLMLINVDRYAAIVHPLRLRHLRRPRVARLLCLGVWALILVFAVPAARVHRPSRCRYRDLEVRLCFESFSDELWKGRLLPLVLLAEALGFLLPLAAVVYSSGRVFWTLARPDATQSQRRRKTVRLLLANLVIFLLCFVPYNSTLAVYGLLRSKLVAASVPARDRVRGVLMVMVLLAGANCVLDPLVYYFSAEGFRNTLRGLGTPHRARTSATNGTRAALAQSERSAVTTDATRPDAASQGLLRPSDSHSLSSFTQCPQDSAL
Test details: Antagonist activity at human LPA5 receptor expressed in RH7777 cells assessed as inhibition of EC80 concentration of hexadecyl LPA-induced calcium mobilization incubated for 15 mins by FLIPR method
Type: functional, cell-based
Bear in mind: pIC50 is minus log10 of a mol/L concentration; give just that figure.

What value of measured pIC50 is listed for `COc1cc2c(C(=O)N3CCC(F)CC3)cn(-c3ccc4occc4c3)c(=O)c2cc1OC` ?
5.83

What value of measured pIC50 is listed for `CCCOc1cc2c(C(=O)N3CCC(F)CC3)cn(-c3cccc(N(C)C)c3)c(=O)c2cc1OC` ?
6.32

Next:
What value of measured pIC50 is listed for `COc1cc2c(C(=O)N3CCCCC3)cn(-c3noc4ccc(C)cc34)c(=O)c2cc1OC` ?
7.44

* * *

Test target: Lysophosphatidic acid receptor 5 (Homo sapiens, UniProt Q9H1C0)
Test details: Antagonist activity at human LPA5 receptor expressed in RH7777 cells assessed as inhibition of EC80 concentration of LPA-induced cAMP accumulation preincubated for 30 mins followed by Eu-cAMP tracer addition and measured after 1 hr by TR-FRET assay relative to hexadecyl LPA
Format: functional, cell-based
Setup conditions: filed as antagonist
Quantity name: inhibition (%)
Give the quantity in %, number only.

What value of measured inhibition is listed for `COc1cc2c(C(=O)N3CCC(F)CC3)cn(-c3ccc4scc(C)c4c3)c(=O)c2cc1OC` ?
104

What value of measured inhibition is listed for `COc1cc2c(C(=O)N3CCCCC3)cn(-c3noc4ccc(C)cc34)c(=O)c2cc1OC` ?
102

What value of measured inhibition is listed for `COc1cc2c(C(=O)N3CCCCC3)cn(-c3ccc4ccn(C)c4c3)c(=O)c2cc1OC` ?
109

Next:
What value of measured inhibition is listed for `COc1cc2c(C(=O)N3CCCCC3)cn(-c3cccc(N(C)C)c3)c(=O)c2cc1OC` ?
89

What value of measured inhibition is listed for `CCN1CCc2ccc(-n3cc(C(=O)N4CCC(F)CC4)c4cc(OC)c(OC)cc4c3=O)cc21` ?
94

What value of measured inhibition is listed for `COc1cc2c(C(=O)N3CCC(C#N)CC3)cn(-c3cccc(N(C)C)c3)c(=O)c2cc1OC` ?
92

* * *

Test target: Lysophosphatidic acid receptor 5 (Homo sapiens)
Test details: Antagonist activity at human LPA5 receptor expressed in RH7777 cells assessed as inhibition of EC80 concentration of hexadecyl LPA-induced calcium mobilization incubated for 15 mins by FLIPR method
Format: functional, cell-based
Quantity name: log10(IC50) (log10 of the value in nM)
Plainly stated, the numbers are log10 of IC50 given in nM.

Illustrative cases are given below, each with its answer.
What value of measured log10(IC50) is listed for `COc1cc2c(C(=O)N3CCCCC3)cn(-c3cccc(C(C)=O)c3)c(=O)c2cc1OC` ?
3.25

What value of measured log10(IC50) is listed for `COc1ccc2c(C(=O)N3CCC(F)CC3)cn(-c3cccc(N(C)C)c3)c(=O)c2c1` ?
3.03

What value of measured log10(IC50) is listed for `COc1cc2c(C(=O)N3CCC(C(F)(F)F)CC3)cn(-c3cccc(N(C)C)c3)c(=O)c2cc1OC` ?
3.19

What value of measured log10(IC50) is listed for `CCN1CCc2ccc(-n3cc(C(=O)N4CCC(F)CC4)c4cc(OC)c(OC)cc4c3=O)cc21` ?
1.76

What value of measured log10(IC50) is listed for `CC#CC1CCN(C(=O)c2cn(-c3cccc(N(C)C)c3)c(=O)c3cc(OC)c(OC)cc23)CC1` ?
1.96

What value of measured log10(IC50) is listed for `COc1cc2c(C(=O)N3CCCCC3)cn(-c3ccc4ccn(C)c4c3)c(=O)c2cc1OC` ?
1.81

What value of measured log10(IC50) is listed for `COc1cc2c(C(=O)N3CCCCC3)cn(-c3ccc4scc(C)c4c3)c(=O)c2cc1OC` ?
1.51

What value of measured log10(IC50) is listed for COc1cc2c(C(=O)N3CCCCC3C)cn(-c3cccc(N(C)C)c3)c(=O)c2cc1OC (racemic) ?
3.00

What value of measured log10(IC50) is listed for `COc1cc2c(=O)n(-c3cccc(N(C)C)c3)cc(C(=O)N3CCC(F)CC3)c2cc1OC1CCCC1` ?
2.95

What value of measured log10(IC50) is listed for `CCCCCOc1cc2c(C(=O)N3CCC(F)CC3)cn(-c3cccc(N(C)C)c3)c(=O)c2cc1OC` ?
2.36

Next:
What value of measured log10(IC50) is listed for `COc1cc2c(C(=O)N3CCCCC3)cn(-c3cccc(C(C)(C)C)c3)c(=O)c2cc1OC` ?
2.24

What value of measured log10(IC50) is listed for `COc1cc2c(=O)n(-c3cccc(N(C)C)c3)cc(C(=O)N3CCC(F)CC3)c2cc1OC(C)C` ?
2.57

Just for reference, ChEMBL document CHEMBL5352427 is where these values come from.
